# Tested on: Caenorhabditis elegans
# experiment description: Protection against thermal stress in Caenorhabditis elegans N2 assessed as increase in mean survival time at 300 uM at 37 degC measured every 1 hr post treatment relative to control
# Type: functional
Calls of active or inactive are those of the source. The calls are words filed in the database; no cut-off is given here.
readout label: Activity

item_smiles=CCCCOc1cc2c(c3c1C[C@@H]1[C@@H](C)CO[C@]1(C)O3)C[C@@H]1[C@@H](C)CO[C@]1(C)O2 readout_label=Activity observed_value=Active
item_smiles=C[C@H]1CO[C@]2(C)Oc3c(c4c(c5c3C[C@@H]3[C@@H](C)CO[C@]3(C)O5)CN(c3ccc(Br)cc3)CO4)C[C@H]12 readout_label=Activity observed_value=Active
item_smiles=COC(=O)CNC(=O)c1c(O)c2c(c3c1O[C@@]1(C)OC[C@H](C)[C@H]1C3)O[C@@]1(C)OC[C@H](C)[C@H]1C2 readout_label=Activity observed_value=Active

---

# System: Caenorhabditis elegans
# experiment description: Protection against thermal stress in Caenorhabditis elegans N2 assessed as increase in mean survival time at 300 uM at 37 degC measured every 1 hr post treatment relative to control
# Format: functional
Activity calls are given as the source filed them. The calls are words filed in the database; no cut-off is given here.
readout label: Activity

compound=COC(=O)c1c(O)c2c(c3c1O[C@@]1(C)OC[C@H](C)[C@H]1C3)O[C@@]1(C)OC[C@H](C)[C@H]1C2 observed_value=Active
compound="COC(=O)C(Cc1ccc(O)cc1)NC(=O)c1c(O)c2c(c3c1O[C@@]1(C)OC[C@H](C)[C@H]1C3)O[C@@]1(C)OC[C@H](C)[C@H]1C2 (stereo partly drawn)" observed_value=Active
compound=C[C@H]1CO[C@]2(C)Oc3cc(O)c4c(c3C[C@H]12)O[C@@]1(C)OC[C@H](C)[C@H]1C4 observed_value=Active

meta.source: ChEMBL document CHEMBL4145552
